# Test system: Caco-2 cells
# TEST DESCRIPTION: MTT cell viability assay in Caco-2 cells
# Format: cell-based
# MEASUREMENT PARAMETERS: Homo sapiens, Caco-2, 72 h, read-out: IC50 Caco-2
# Description: The MTT assay was used to assess the effect of the compounds on cell viability. […] Relative cell viability was calculated by measuring absorbance at 570 nm using a Benchmark Plus Microplate Reader (Bio-Rad Laboratories, Hercules, CA, USA). […]
PROPERTY NAME: pIC50
// pIC50: -log10(molar conc.)

Entry under review: "CC(=O)Oc1c(C(C)C)cc2c(c1OC(C)=O)[C@@]1(NC(=O)OCC(C)C)CCCC(C)(C)[C@@H]1CC2" . Reported pIC50?
4.80
